Below, each entry is listed alongside its reported TGI.
test system: M14 melanoma; experiment: NCI tumour cell line growth inhibition, 48 h

compound=COc1ccc(N(C(=O)NCCO)c2ccccc2)cc1 quantity=TGI recorded_measurement="> 100 µM"
compound=Cc1cc(C)c(C(=O)/C=C/c2ccccc2)c(C)c1 quantity=TGI recorded_measurement="40.3 µM"
compound=Cc1cc2c(C(C)C)c(O)c(O)c(C=Nc3ccccc3)c2c(O)c1-c1c(C)cc2c(C(C)C)c(O)c(O)c(C=Nc3ccccc3)c2c1O quantity=TGI recorded_measurement="> 100 µM"
compound="CC12CCC(O)CC1=CCC1C2CCC2(C)C(c3cccnc3)=CCC12 (configuration not stated)" quantity=TGI recorded_measurement="> 100 µM"
compound=CN=C(NC)N(C)c1nc(=[N+](C)C)ss1 quantity=TGI recorded_measurement="> 100 µM"
compound=C[C@]12CCc3sc(-c4cccc(F)c4)nc3C1=CC[C@@H]1[C@@H]2CC[C@]2(C)C(=O)CC[C@@H]12 quantity=TGI recorded_measurement="> 100 µM"
compound=Cc1cc(C)c2c(=O)cc(-c3ccc4ccccc4c3)[nH]c2n1 quantity=TGI recorded_measurement="67.5 µM"
compound=Cc1cc2c(=O)[nH]c(N)nc2nc1C quantity=TGI recorded_measurement="> 100 µM"
compound=Cc1cc(NS(=O)(=O)c2ccc(Nc3c4ccccc4nc4c(C(=O)Nc5ccc(S(=O)(=O)N=C(N)N)cc5)ccc(Cl)c34)cc2)no1 quantity=TGI recorded_measurement="> 100 µM"
compound=CN(C)CCNc1nc2ccccc2c2occc12 quantity=TGI recorded_measurement="68.5 µM"

The observed TGI for `O=C(Sc1sc(=S)sc1SC(=O)c1ccccc1)c1ccccc1` when tested with M14 melanoma stands at > 100 µM

Measured on M14 melanoma, `Cc1[nH]c(=O)nc(N(CCO)/N=C/c2ccc(Cl)cc2)c1C(=O)Nc1ccc(Cl)cc1` has a documented TGI of > 100 µM

Item: `CC1(C)CC(=O)c2c(ccc(C(=O)C[C@@H](N)CO)c2N)O1` | System: M14 melanoma | TGI: 8.41 µM

Value (TGI, M14 melanoma) for record `COc1ccc2c(c1)CCN1C3=C(CCC3)C(=O)C[C@@H]21` = > 100 µM

Entry `O=Nc1c(O)c2ccccc2c2ccccc12` : TGI on M14 melanoma = 1.6 µM

Reading of TGI for `CCN(Cc1cccc(F)c1F)c1ccc(CO)c(Cl)c1` with M14 melanoma: 35.1 µM
